- Test system: K98450-129-R-PDC multicell spheroids, viability
- test_description: Anticancer human tumor K98450-129-R-PDC patient-derived colon adenocarcinoma cell line growth inhibition [PI3K]
- condition_details: second compound 0.0316 µM; first compound 0.1 µM; hits give low values
experimental_endpoint: viability, T/C (%)
Kindly answer with a numeric value in %, unit omitted.

CC(=O)c1c(C)c2cnc(Nc3ccc(N4CCNCC4)cn3)nc2n(C2CCCC2)c1=O + Cc1nc(NC(=O)N2CCCC2C(N)=O)sc1-c1ccnc(C(C)(C)C(F)(F)F)c1
97.9
C=CC(=O)N1CCN(c2nc(=O)n(-c3c(C)ccnc3C(C)C)c3nc(-c4c(O)cccc4F)c(F)cc23)C(C)C1 (stereo not drawn) + CC(Nc1ccc2c(c1)OCCn1cc(N3C(=O)OCC3C(F)F)nc1-2)C(N)=O
97.7

Pending molecule:
Q. Fill in: viability, T/C of CCCS(=O)(=O)Nc1ccc(F)c(C(=O)c2c[nH]c3ncc(-c4ccc(Cl)cc4)cc23)c1F + CC(Nc1ncnc2nc[nH]c12)c1cc2cccc(Cl)c2c(=O)n1-c1ccccc1 is ___
A. 97.9

----------
- Tested on: K98450-129-R-PDC multicell spheroids, viability
- test_description: Anticancer human tumor K98450-129-R-PDC cell line growth inhibition [PI3K];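 further: spheroids exposed to agents for seven days before read-out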
- condition_details: second compound 3.16 µM; first compound 0.1 µM; hits give low values
Readings of viability, T/C for the listed compounds
Kindly answer with a numeric value in %, unit omitted.

Q. Fill in: viability, T/C of CC(Cn1ccc(-c2ccc(C#N)c(Cl)c2)n1)NC(=O)c1cc(C(C)O)[nH]n1 (stereo unspecified) + Cc1nc(NC(=O)N2CCCC2C(N)=O)sc1-c1ccnc(C(C)(C)C(F)(F)F)c1 is ___
A. 81.4

Q. Fill in: viability, T/C of CCCS(=O)(=O)Nc1ccc(F)c(C(=O)c2c[nH]c3ncc(-c4ccc(Cl)cc4)cc23)c1F + CC(Nc1ncnc2nc[nH]c12)c1cc2cccc(Cl)c2c(=O)n1-c1ccccc1 is ___
A. 102

Q. Fill in: viability, T/C of C[C@@H](NC(=O)c1ncnc(N)c1Cl)c1ncc(C(=O)Nc2cc(C(F)(F)F)c(Cl)cn2)s1 + CC(Nc1ncnc2nc[nH]c12)c1cc2cccc(Cl)c2c(=O)n1-c1ccccc1 is ___
A. 112

Q. Fill in: viability, T/C of Cn1nccc1Nc1nccc(-c2ccn(C(CO)c3ccc(Cl)c(F)c3)c(=O)c2)n1 (stereo unspecified) + Cc1nc(NC(=O)N2CCCC2C(N)=O)sc1-c1ccnc(C(C)(C)C(F)(F)F)c1 is ___
A. 86.1

Q. Fill in: viability, T/C of Cn1ncc(Cl)c1-c1cc(C(=O)NC(CN)Cc2cccc(F)c2)sc1Cl (stereo unspecified) + Cc1nc(NC(=O)N2CCCC2C(N)=O)sc1-c1ccnc(C(C)(C)C(F)(F)F)c1 is ___
A. 85.1

Q. Fill in: viability, T/C of CC(=O)c1c(C)c2cnc(Nc3ccc(N4CCNCC4)cn3)nc2n(C2CCCC2)c1=O + CC(Nc1ncnc2nc[nH]c12)c1cc2cccc(Cl)c2c(=O)n1-c1ccccc1 is ___
A. 89.9

----------
- System: K98450-129-R-PDC multicell spheroids, viability
- test_description: Anticancer human tumor K98450-129-R-PDC cell line growth inhibition [PI3K];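 further: spheroids exposed to agents for seven days before read-out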
- condition_details: second compound 1 µM; first compound 1 µM; hits give low values
experimental_endpoint: viability, T/C

Record excerpt, results attached:
CCN1CCN(Cc2ccc(Nc3ncc(F)c(-c4cc(F)c5nc(C)n(C(C)C)c5c4)n3)nc2)CC1 + COc1c(OCCCN2CCOCC2)ccc2c3n(c(=NC(=O)c4cnc(N)nc4)nc12)CCN3
65.2%
C[C@@H](NC(=O)c1ncnc(N)c1Cl)c1ncc(C(=O)Nc2cc(C(F)(F)F)c(Cl)cn2)s1 + CC(Nc1ccc2c(c1)OCCn1cc(N3C(=O)OCC3C(F)F)nc1-2)C(N)=O
104%

Pending compound:
Q. Fill in: viability, T/C of CC1(C)CCC(Nc2ncc(C(F)(F)F)c(-c3c[nH]c4c(P(C)(C)=O)c(C#N)ccc34)n2)CN1 (stereo not drawn) + CC(Nc1ncnc2nc[nH]c12)c1cc2cccc(Cl)c2c(=O)n1-c1ccccc1 is ___
A. 64.6%
